Origin of values: patent US20120276102A1

- targetUnderTest: T1, human IL-21R expressed on cells (human, UniProt Q9HBE5 20-538)
- T1 construct: also called human IL-21R-BaF3; human IL-21R-TF1
- T1 sequence (Q9HBE5 20-538 limits assumed): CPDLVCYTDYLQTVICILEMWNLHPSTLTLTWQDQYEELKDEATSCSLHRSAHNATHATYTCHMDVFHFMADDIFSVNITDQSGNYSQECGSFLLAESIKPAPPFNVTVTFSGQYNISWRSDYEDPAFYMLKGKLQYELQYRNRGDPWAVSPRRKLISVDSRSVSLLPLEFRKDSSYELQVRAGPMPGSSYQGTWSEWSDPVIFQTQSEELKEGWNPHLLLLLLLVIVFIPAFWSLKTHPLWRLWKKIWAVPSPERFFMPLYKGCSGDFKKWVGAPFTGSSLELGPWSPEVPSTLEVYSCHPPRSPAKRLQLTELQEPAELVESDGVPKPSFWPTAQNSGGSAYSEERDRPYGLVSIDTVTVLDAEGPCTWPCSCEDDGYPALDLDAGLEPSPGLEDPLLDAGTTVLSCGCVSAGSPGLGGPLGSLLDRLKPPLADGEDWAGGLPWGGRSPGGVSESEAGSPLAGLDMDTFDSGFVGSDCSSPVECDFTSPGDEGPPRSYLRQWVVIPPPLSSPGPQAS
- protocolDetails: cell-based ELISA on CHO cells transiently expressing human IL-21R; HRP anti-human IgG, A450
Each item that follows carries a reported EC50 (read off the curve).

1. AbB (antibody, IgG1, V domains shown, As for AbA: IgG1/lambda, CDR3 graft, residue limits derived; also called VHP/VL3) VH: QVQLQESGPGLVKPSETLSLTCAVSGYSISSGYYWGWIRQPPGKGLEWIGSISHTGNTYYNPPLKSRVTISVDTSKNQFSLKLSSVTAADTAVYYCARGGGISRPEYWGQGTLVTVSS VL: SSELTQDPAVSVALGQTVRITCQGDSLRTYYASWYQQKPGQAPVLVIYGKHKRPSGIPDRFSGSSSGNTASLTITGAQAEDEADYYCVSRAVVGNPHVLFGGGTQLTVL : ~1 nM
2. AbT (antibody, human IgG1, V domains shown, CDR3 graft, residue limits derived as for m29; also called VHP/VL9; VHPTM/VL9) VH: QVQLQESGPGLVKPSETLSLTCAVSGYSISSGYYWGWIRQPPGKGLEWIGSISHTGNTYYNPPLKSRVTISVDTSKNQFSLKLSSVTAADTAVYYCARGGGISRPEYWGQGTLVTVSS VL: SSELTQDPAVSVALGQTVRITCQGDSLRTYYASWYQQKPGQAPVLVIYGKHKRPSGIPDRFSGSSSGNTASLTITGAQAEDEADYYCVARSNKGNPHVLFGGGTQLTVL : ~1 nM
3. AbG (antibody, IgG1, V domains shown, As for AbA: IgG1/lambda, CDR3 graft, residue limits derived; also called VHP/VL18) VH: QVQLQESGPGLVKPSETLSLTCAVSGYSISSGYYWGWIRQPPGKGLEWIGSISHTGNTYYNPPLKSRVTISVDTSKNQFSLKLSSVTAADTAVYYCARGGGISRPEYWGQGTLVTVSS VL: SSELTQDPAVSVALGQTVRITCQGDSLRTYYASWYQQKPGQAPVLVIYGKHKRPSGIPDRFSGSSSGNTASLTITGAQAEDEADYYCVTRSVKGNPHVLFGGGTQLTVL : ~0.5 nM
4. AbO (antibody, human IgG1, V domains shown, CDR3 graft, residue limits derived as for m29; also called VHP/VL16; VHPTM/VL16) VH: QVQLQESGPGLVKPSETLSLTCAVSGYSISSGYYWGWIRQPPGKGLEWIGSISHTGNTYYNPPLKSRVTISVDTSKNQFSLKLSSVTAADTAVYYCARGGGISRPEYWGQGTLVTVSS VL: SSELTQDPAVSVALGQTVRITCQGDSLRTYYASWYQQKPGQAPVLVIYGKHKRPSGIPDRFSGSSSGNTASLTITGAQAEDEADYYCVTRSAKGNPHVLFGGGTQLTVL : ~0.4 nM

Continue with the next binder.
GET /values?readout=EC50 (read off the curve)&item= AbU (antibody, human IgG1, V domains shown, CDR3 graft, residue limits derived as for m29; also called VHP/VL25; VHPTM/VL25) VH: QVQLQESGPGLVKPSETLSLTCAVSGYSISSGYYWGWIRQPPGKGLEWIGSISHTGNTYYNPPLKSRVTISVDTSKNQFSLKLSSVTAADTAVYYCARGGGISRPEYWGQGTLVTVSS VL: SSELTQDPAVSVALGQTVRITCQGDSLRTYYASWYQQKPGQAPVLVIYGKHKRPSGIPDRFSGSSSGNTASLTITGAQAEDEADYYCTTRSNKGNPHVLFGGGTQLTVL
~2 nM
